- System: Fibrinogen (Alexa647-labelled)
- assay_details: Alexa647-fibrinogen binding to printed small molecules – biochemical, small-molecule microarray, 635/667 nm fluorescence, artefact control for SMM control-protein annotation, profiling panel (AID 1131);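 further: z-score merges 667 nm fluorescence with per-spot signal-to-noise over triplicate slides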
- condition_notes: fibrinogen-A647 binding fluorescence, higher = more signal
Recorded composite z-score for the following molecules
Lab note: jot down the number only; don't add units.

Example entries and their recorded answers appear below.
molecule	composite z-score
CC(C)Cc1ccc(CN2CC[C@@H](N)C2)cc1	-0.0978
COc1ccc([Si](C)(C)[C@@H]2[C@@H](CC(=O)N3CCC[C@H]3CO)O[C@]3(C(=O)N(Cc4cccc(I)c4)c4ccccc43)[C@H]2C)cc1	0.591
O=C(NCCN1CCOCC1)[C@@H]1c2ccccc2C(=O)N(Cc2cc(C(F)(F)F)cc(C(F)(F)F)c2)[C@H]1c1ccc(CO)cc1	-0.487

Record COc1ccc([Si](C)(C)[C@@H]2[C@@H](CCn3cc(CCO)nn3)O[C@]3(C(=O)N(Cc4cccc(N5C(=O)c6cccc7cccc5c67)c4)c4ccccc43)[C@H]2C)cc1 , field composite z-score: 0.556

Record C=CCN1C(=O)[C@]2(O[C@H](CCO)[C@@H]([Si](C)(C)c3ccc(OC)cc3)[C@@H]2C)c2cc(N(C=O)c3ccccc3)ccc21 , field composite z-score: -0.16

Record NCCCCCNC(=O)[C@H]1C[C@H]2C(=O)N[C@@H](Cc3ccccc3)C(=O)N2[C@H]1c1cccc(OCCO)c1 , field composite z-score: 0.962

Record O=C(O)C1N=C(c2ccc(OCCCO)cc2)N(c2ccccc2)O1 (stereo not given) , field composite z-score: 0.953

Record O=C1[C@H]2C=C(I)[C@H](C[C@@H]2OCCCCO)[C@@]12CO2 , field composite z-score: -0.327

Record CC(C)=CCCC(C)=CC(O)C1C=CC2C(=O)N(c3ccccc3)C(=O)C2N1Nc1ccc(C(C)C)cc1 (stereo not given) , field composite z-score: 0.998

Record CN1C(=O)C2C=CC(C(O)c3ccccc3)N(N3CCCCC3)C2C1=O (stereo not given) , field composite z-score: 0.412

Record CC[C@@H]1C=C(C(=O)O)[C@H](c2ccc(C)cc2)N1S(=O)(=O)c1ccc(C)cc1 , field composite z-score: 0.915
